Listed here are compounds together with their documented melting point.

See these solved cases before continuing.
>  <compound>
N#CCc1cc(Br)ccc1F

>  <experimental-readout>
melting point

>  <observed-value>
43 to 45 °C

$$$$
>  <compound>
O=C(O)C=Cc1ccc([N+](=O)[O-])o1

>  <experimental-readout>
melting point

>  <observed-value>
230 to 232 °C

$$$$
>  <compound>
NCCc1ccc(S(=O)(=O)N2CCCCC2)s1

>  <experimental-readout>
melting point

>  <observed-value>
74 to 76 °C

$$$$
>  <compound>
Oc1ccc(-c2noc(C3CC3)n2)cc1

>  <experimental-readout>
melting point

>  <observed-value>
149 to 151 °C

$$$$

Exam item: Fill in the blank: the reported melting point of CS(=O)(=O)c1cc([N+](=O)[O-])c(Cl)s1 is ____.
Marked response: 148 to 150 °C

Exam item: Entry NC(=O)COc1ccc(Cl)cc1S(N)(=O)=O : reported melting point = ?
Marked response: 214 to 216 °C
